assayed_target: G-protein coupled receptor 151 (Homo sapiens) (UniProt Q8TDV0)
Sequence (Q8TDV0 whole entry, looked up): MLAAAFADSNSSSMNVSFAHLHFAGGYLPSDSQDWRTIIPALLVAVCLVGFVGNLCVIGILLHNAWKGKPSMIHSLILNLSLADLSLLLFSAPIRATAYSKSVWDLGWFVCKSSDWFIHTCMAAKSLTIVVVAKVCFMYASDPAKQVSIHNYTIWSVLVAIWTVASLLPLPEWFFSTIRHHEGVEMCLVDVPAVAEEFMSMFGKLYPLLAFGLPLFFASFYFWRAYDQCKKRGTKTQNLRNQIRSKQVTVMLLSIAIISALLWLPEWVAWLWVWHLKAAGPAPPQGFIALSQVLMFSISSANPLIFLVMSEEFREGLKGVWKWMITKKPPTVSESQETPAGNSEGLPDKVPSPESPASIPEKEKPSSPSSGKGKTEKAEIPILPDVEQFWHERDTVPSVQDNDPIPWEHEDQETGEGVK
assay_comment: GPR151 activator potency, dose response, cell-based (AID 1508610)
particulars: cell-based GPR151 activation reporter
Activity calls are given as the source filed them. The rule behind the calls is not given here.
Can you answer with just one of these options? active, inactive

Consider the following illustrative entries.
[[record]]
chemical_string = "COc1ccc(CCNc2cc(C)nc(Nc3ccc(-n4ccnc4)cc3)n2)cc1"
assayed_target = "G-protein coupled receptor 151 (Homo sapiens) (UniProt Q8TDV0)"
answer_label = "active"

[[record]]
chemical_string = "CCn1c(SCC(=O)c2ccccc2)nnc1C(C)C"
assayed_target = "G-protein coupled receptor 151 (Homo sapiens) (UniProt Q8TDV0)"
answer_label = "inactive"

[[record]]
chemical_string = "CC(=O)Nc1ccc(Nc2ccnc(N3CCc4ccccc4C3)n2)cc1"
assayed_target = "G-protein coupled receptor 151 (Homo sapiens) (UniProt Q8TDV0)"
answer_label = "inactive"

[[record]]
chemical_string = "Cc1nn(C)cc1CN1CCOc2ccc(CN3CCc4ccccc4C3)cc2C1"
assayed_target = "G-protein coupled receptor 151 (Homo sapiens) (UniProt Q8TDV0)"
answer_label = "inactive"

[[record]]
chemical_string = "COc1ccc(-c2ccc(C(=O)NCCc3ccc(O)cc3)s2)cc1"
assayed_target = "G-protein coupled receptor 151 (Homo sapiens) (UniProt Q8TDV0)"
answer_label = "inactive"


# evaluate next
Lookup: Record lookup: outcome of this test for `O=C(O)c1ccc(/C=C2\SC(=S)N(CCS(=O)(=O)O)C2=O)cc1` ?
Found: inactive

* * *

assayed_target: G-protein coupled receptor 151 (Homo sapiens) (UniProt Q8TDV0)
assay_comment: GPR151 activator potency, dose response, cell-based (AID 1508610)
particulars: cell-based GPR151 activation reporter
Activity calls are given as the source filed them. The rule behind the calls is not given here.
value_type: EC50

Below: 3 compounds and their reported EC50.
[[record]]
chemical_string = "Cc1ccc(NC(=O)/C(=C/c2cccc([N+](=O)[O-])c2)NC(=O)c2cccs2)c(Br)c1"
measured = "> 18.7 µM (inactive)"

[[record]]
chemical_string = "NC(=O)c1ccsc1NC(=O)/C=C/c1ccccc1"
measured = "> 26.7 µM (inactive)"

[[record]]
chemical_string = "O=C1NC(=S)S/C1=C\\c1ccc(C(=O)O)cc1"
measured = "> 29.6 µM (inactive)"


Lookup: # lookup: EC50 of `NC[C@H]1O[C@H](O[C@H]2[C@H](O)[C@@H](O[C@H]3O[C@H](CO)[C@@H](O)[C@H](N)[C@H]3O)[C@H](N)C[C@@H]2N)[C@H](N)C[C@@H]1O`
Found: > 28 µM (inactive)

Lookup: # lookup: EC50 of `COc1cccc(/C=C(\C#N)c2nc3ccc(C)cc3[nH]2)c1OC`
Found: > 33.2 µM (inactive)

* * *

assayed_target: G-protein coupled receptor 151 (Homo sapiens) (UniProt Q8TDV0)
assay_comment: GPR151 activator potency, dose response, cell-based (AID 1508610)
particulars: cell-based GPR151 activation reporter
Activity calls are given as the source filed them. No rule for the calls is given here.
Below: a set of entries, each annotated with reported EC50.

Below: 4 molecules and their reported EC50.
[[record]]
molecule = "COc1ccc(-c2nc(Nc3ccc(C)c(Cl)c3)c3ccccc3n2)cc1OC"
value_type = "EC50"
measured = "> 26.1 µM (inactive)"

[[record]]
molecule = "COc1cc([N+](=O)[O-])ccc1NC(=O)Nc1ccc(Cl)cc1F"
value_type = "EC50"
measured = "> 28 µM (inactive)"

[[record]]
molecule = "COC(C(=O)NCC1CCC2(CCN(Cc3ccccc3)CC2)O1)c1ccccc1 (stereo unspecified)"
value_type = "EC50"
measured = "> 28 µM (inactive)"

[[record]]
molecule = "Nc1nc2n(n1)C(c1ccccc1Cl)CC(c1ccc(F)cc1)N2 (stereo unspecified)"
value_type = "EC50"
measured = "> 28 µM (inactive)"


Read the next record carefully.
Lookup: // fetch G-protein coupled receptor 151 (Homo sapiens) (UniProt Q8TDV0) EC50 for `CSc1nc2ccc(NC(=O)Cn3cnc4ccccc4c3=O)cc2s1`
Found: > 29.3 µM (inactive)
